Cited source: patent US20110313672A1

Assign CC50 at 24 h to each entry below.
- test-protocol: Cytotoxicity toward HepG2 cells (methylene blue staining)
- condition-context: human

-- ask Looking for the measured CC50 at 24 h of O=c1c(-c2ccc(O)cc2)coc2cc(O)cc(O)c12 , can you help?
-- reply > 100 µM

-- ask Which CC50 at 24 h reading was recorded for the molecule O=c1c(O)c(-c2ccc(O)cc2)oc2cc(O)cc(O)c12 ?
-- reply > 100 µM

-- ask Any idea what CC50 at 24 h was measured for Oc1cc(O)c2c(c1)O[C@H](c1cc(O)c(O)c(O)c1)[C@H](O)C2 [EGC, (−)-epigallocatechin] ?
-- reply > 200 µM

Field: CC50 at 24 h. Fill in for each record below.
1. O=c1c(O)c(-c2cc(O)c(O)c(O)c2)oc2cc(O)cc(O)c12
2. Oc1cc(O)c2c(c1)O[C@H](c1ccc(O)c(O)c1)[C@H](O)C2 [Epicatechin, (−)-epicatechin]

-- reply
1: > 200 µM; 2: > 1000 µM
